tested on: Setaria viridis; assay: Post-emergence test, weed control effect; type: in vivo; details: 504 h, Dose 300 g/ha, after 3 weeks, fresh weight inhibition, read-out: activity level of harmful plant destruction (growth inhibition rate), Setaria viridis
assayReadout: inhibition at 300 g/ha

compound	assayReadout	result
CCCCCCCCSC(=O)Oc1cc(Cl)nnc1-c1ccccc1 [B, reference compound]	inhibition at 300 g/ha	30 to 40%
Oc1cc(C(F)(F)F)nnc1-c1ccc(F)nc1	inhibition at 300 g/ha	100%
Oc1cc(C(F)(F)F)nnc1-c1ccnc(F)c1	inhibition at 300 g/ha	100%
Oc1cc(Cl)nnc1-c1ccccc1 [A, reference compound]	inhibition at 300 g/ha	30 to 40%
C=CCOc1cc(C(F)(F)F)nnc1-c1ccccc1 [E, reference compound]	inhibition at 300 g/ha	0%
Oc1cc(C(F)(F)F)nnc1-c1cc(F)cc(F)c1	inhibition at 300 g/ha	100%
Oc1cc(C(F)(F)F)nnc1-c1ccc(Cl)cc1	inhibition at 300 g/ha	100%
Cn1nc(-c2cc(O)c(Cl)cc2Cl)c(=O)cc1C(F)(F)F [C, reference compound]	inhibition at 300 g/ha	0%
Oc1cc(C(F)(F)F)nnc1-c1ccc(F)cc1	inhibition at 300 g/ha	100%
Oc1cc(C(F)(F)F)nnc1-c1ccc(F)c(F)c1	inhibition at 300 g/ha	100%

* * *

Readings of inhibition at 300 g/ha for the listed molecules
system: Chenopodiaceae; experiment: Post-emergence test, weed control effect; assay type: in vivo; details: 504 h, Dose 300 g/ha, after 3 weeks, fresh weight inhibition, read-out: activity level of harmful plant destruction (growth inhibition rate), Chenopodiaceae
assayReadout: inhibition at 300 g/ha

molecule	result
Oc1cc(Cl)nnc1-c1ccccc1 [A, reference compound]	50 to 60%
COc1cc(C(F)(F)F)nnc1-c1ccccc1 [D, reference compound]	0 to 20%
CCCCCCCCSC(=O)Oc1cc(Cl)nnc1-c1ccccc1 [B, reference compound]	30 to 40%
Cn1nc(-c2cc(O)c(Cl)cc2Cl)c(=O)cc1C(F)(F)F [C, reference compound]	30 to 40%
C=CCOc1cc(C(F)(F)F)nnc1-c1ccccc1 [E, reference compound]	0 to 20%

* * *

system: Chenopodiaceae; experiment: Post-emergence test, weed control effect; format: in vivo; details: Dose 3000 g/ha, after 3 weeks
Readings of weed control effect, Chenopodiaceae (activity level) for the listed compounds
assayReadout: weed control effect, Chenopodiaceae (activity level)

compound	quantitativeResult
CCCOC(=S)Oc1cc(C(F)(F)F)nnc1-c1ccc(OC)cc1 [Compound 1-156]	10
O=S(=O)(Oc1cc(C(F)(F)F)nnc1-c1ccc(F)cc1)c1ccc(Cl)cc1Cl [Compound 1-133]	10
O=S(=O)(Oc1cc(C(F)(F)F)nnc1-c1ccc(F)c(F)c1)c1ccc(C(F)(F)F)cc1 [Compound 1-129]	10
CCCCC(CC)OC(=O)Oc1cc(C(F)(F)F)nnc1-c1ccc(Br)c([N+](=O)[O-])c1 (stereo not shown) [Compound 1-36]	10
CC(=O)Oc1cc(C(F)(F)F)nnc1-c1cccc(F)c1 [Compound 1-1]	10
O=S(Oc1cc(C(F)(F)F)nnc1-c1ccc(F)cc1)C(F)(F)F (stereo not shown) [Compound 1-166]	10
CCC/C(C)=N\Oc1cc(C(F)(F)F)nnc1-c1ccc(OC)cc1 [Compound 1-171]	10
O=S(=O)(NCCCCl)Oc1cc(C(F)(F)F)nnc1-c1cccc(F)c1 [Compound 1-124]	10
O=C(Oc1cc(C(F)(F)F)nnc1-c1ccc(Cl)cc1)c1cc(Cl)nc(Cl)n1 [Compound 1-111]	10
CCCCCCCCOC(=O)Oc1cc(C(F)(F)F)nnc1-c1ccc(C(F)(F)F)cc1 [Compound 1-40]	10
O=C(/C=C/c1ccc(Cl)cc1)Oc1cc(C(F)(F)F)nnc1-c1ccc(F)cc1 [Compound 1-97]	10
CSc1ccc(-c2nnc(C(F)(F)F)cc2OC(=O)SCCc2ccccc2)cc1 [Compound 1-103]	10
CCCCCOC(=O)Oc1cc(C(F)(F)F)nnc1-c1ccc(F)c(F)c1 [Compound 1-31]	10
O=C(Oc1cc(C(F)(F)F)nnc1-c1ccc(F)cc1)N1CCCCC1 [Compound 1-67]	10
Cc1ccc(S(=O)(=O)Oc2cc(C(F)(F)F)nnc2-c2ccc(F)c(F)c2)cc1 [Compound 1-127]	10
O=C(Oc1cc(C(F)(F)F)nnc1-c1ccc(F)c(F)c1)c1ccc2[nH]ccc2c1 [Compound 1-115]	10
O=[N+]([O-])c1ccc(S(=O)(=O)Oc2cc(C(F)(F)F)nnc2-c2ccc(F)c(F)c2)cc1 [Compound 1-135]	10
CCCCC(CCCC)=NOc1cc(C(F)(F)F)nnc1-c1cccc([N+](=O)[O-])c1 [Compound 1-178]	10
CCOC(=S)Oc1cc(C(F)(F)F)nnc1-c1ccc(C)cc1 [Compound 1-155]	10
Fc1ccc(-c2nnc(C(F)(F)F)cc2OCc2ccccc2)cc1 [Compound 1-209]	10
CP(=O)(O)CCC(N)C(=O)Oc1cc(C(F)(F)F)nnc1-c1ccc(F)cc1 (stereo not shown) [Compound 1-78]	10
CCS(=O)(=O)Oc1cc(C(F)(F)F)nnc1-c1ccc(F)cc1 [Compound 1-121]	10
CCc1cccc(-c2nnc(C(F)(F)F)cc2OS(=O)(=O)c2nc3ccccc3[nH]2)c1 [Compound 1-153]	10
CC(=O)CC(=O)Oc1cc(C(F)(F)F)nnc1-c1ccc(F)cc1 [Compound 1-76]	10
O=C(Oc1cc(C(F)(F)F)nnc1-c1ccc(F)cc1)c1cc(F)cc(F)c1F [Compound 1-93]	10

Values were extracted from patent US12568972B2.
